test system: Staphylococcus aureus; assay: Antibacterial activity against quinolone-resistant Staphylococcus aureus CCARM 3519 after 24 hrs by two-fold serial dilution method; assay type: functional; settings: CCARM 3519, 24 h
Quick reference for MIC among some compounds
valueKind: MIC (µg/mL)

| itemSmiles | comparisonSign | recordedMeasurement |
| --- | --- | --- |
| O=C(COc1ccc(/C=C2\SC(=S)N([C@@H](Cc3ccc(O)cc3)C(=O)O)C2=O)cc1)c1cccc(Br)c1 | = | 8 |
| O=C(COc1ccc(/C=C2\SC(=S)N([C@@H](Cc3ccccc3)C(=O)O)C2=O)cc1)c1ccccc1Br | = | 8 |
| O=C(COc1ccc(/C=C2\SC(=S)N([C@@H](Cc3c[nH]c4ccccc34)C(=O)O)C2=O)cc1)c1ccc(Cl)cc1 | = | 1 |
| O=C(COc1ccc(/C=C2\SC(=S)N([C@@H](Cc3c[nH]c4ccccc34)C(=O)O)C2=O)cc1)c1ccccc1 | = | 8 |
| COc1cccc(C(=O)COc2ccc(/C=C3\SC(=S)N([C@@H](Cc4c[nH]c5ccccc45)C(=O)O)C3=O)cc2)c1 | = | 8 |
| CCn1cc(C(=O)O)c(=O)c2cc(F)c(N3CCNCC3)cc21 | > | 64 |
| O=C(COc1ccc(/C=C2\SC(=S)N([C@@H](Cc3ccc(O)cc3)C(=O)O)C2=O)cc1)c1ccccc1Cl | = | 16 |
| Cc1ccc(C(=O)COc2ccc(/C=C3\SC(=S)N([C@@H](Cc4ccc(O)cc4)C(=O)O)C3=O)cc2)cc1 | = | 16 |
